Biological target: GLUT2 (Homo sapiens, UniProt P11168)
Sequence (P11168 whole entry): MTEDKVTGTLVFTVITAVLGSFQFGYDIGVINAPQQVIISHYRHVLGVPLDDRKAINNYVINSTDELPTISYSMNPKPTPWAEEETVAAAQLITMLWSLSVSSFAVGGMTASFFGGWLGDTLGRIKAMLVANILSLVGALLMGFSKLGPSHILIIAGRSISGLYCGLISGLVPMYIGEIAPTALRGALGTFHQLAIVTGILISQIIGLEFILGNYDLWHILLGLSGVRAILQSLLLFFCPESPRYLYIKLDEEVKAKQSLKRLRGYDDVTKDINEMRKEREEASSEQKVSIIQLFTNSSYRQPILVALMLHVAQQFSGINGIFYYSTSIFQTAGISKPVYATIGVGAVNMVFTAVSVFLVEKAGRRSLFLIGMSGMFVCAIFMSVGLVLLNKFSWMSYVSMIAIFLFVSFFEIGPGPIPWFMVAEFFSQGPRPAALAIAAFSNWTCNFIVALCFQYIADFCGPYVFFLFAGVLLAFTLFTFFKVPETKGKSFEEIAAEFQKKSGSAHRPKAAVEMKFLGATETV
Assay: GLUT2 transporter activity assay in CHO-hGLUT2 cells (indirect, intracellular ATP levels)
Conditions: CHO-hGLUT2 cell line; read-out: GLUT2 inhibitory activity (IC50)
propertyMeasured: IC50

# compound, measuredResult
rows = [
    ("Cc1ccc(OCCNC(=O)c2cccc(N3C(=O)NC4CC3(C)Oc3c(OCc5ccccc5)cccc34)c2)cc1 (stereo not shown)", "> 25 µM"),
    ("Cc1ccc(CCNC(=O)c2cccc(N3C(=O)NC4CC3(C)Oc3c(OCc5ccccc5)cccc34)c2)cc1 (stereo not shown)", "10 to 25 µM"),
    ("Cc1ccc(CCNC(=O)c2cccc(N3C(=O)NC4CC3(C)Oc3c(OCc5ccccn5)cccc34)c2)cc1 (stereo not shown)", "4 to 10 µM"),
]

We next turn to a different compound, shown below.
Could you share which IC50 value was measured for CC12CC(NC(=O)N1c1cccc(C(=O)NCCc3ccccc3)c1)c1cccc(OCc3ccccc3)c1O2 (stereo not shown) ?
> 25 µM

Origin of measurements: patent US20210198269A1
